Entries and their phosphorylation enrichment values follow.
target: Fyn (UniProt P06241); assay: phosphorylation enrichment, bacterial display (enrichment ratio); higher = better substrate or ligand; peptides without Tyr show the background;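 also: 11-residue human phosphosite peptides and single-mutation variants displayed on the E. coli surface, counted by deep sequencing, each peptide's frequency after selection divided by its frequency in the unselected input library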;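 also: frequency after pTyr selection over input frequency; kinase dosed for 20-30% of maximal phosphorylation in three min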
Sequence (P06241 whole entry, looked up): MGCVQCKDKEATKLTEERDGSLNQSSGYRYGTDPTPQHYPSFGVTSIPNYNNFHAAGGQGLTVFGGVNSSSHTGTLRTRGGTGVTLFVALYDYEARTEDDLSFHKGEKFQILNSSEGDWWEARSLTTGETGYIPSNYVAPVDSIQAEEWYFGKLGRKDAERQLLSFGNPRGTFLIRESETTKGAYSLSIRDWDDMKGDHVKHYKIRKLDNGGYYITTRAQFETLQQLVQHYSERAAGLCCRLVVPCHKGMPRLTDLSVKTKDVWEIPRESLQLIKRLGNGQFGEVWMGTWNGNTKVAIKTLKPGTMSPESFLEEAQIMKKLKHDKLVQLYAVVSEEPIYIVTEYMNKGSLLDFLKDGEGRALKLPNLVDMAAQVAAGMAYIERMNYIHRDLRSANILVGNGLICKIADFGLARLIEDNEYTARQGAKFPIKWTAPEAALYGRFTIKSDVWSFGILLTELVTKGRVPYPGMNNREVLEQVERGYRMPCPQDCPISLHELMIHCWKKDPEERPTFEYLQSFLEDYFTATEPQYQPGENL
Answer as a number with no unit attached.

biopolymer-sequence: AVISVYDLVAV [PSEN1_Y256]
target-of-assay: Fyn (UniProt P06241)
phosphorylation enrichment: 6.35

biopolymer-sequence: LPPREYVVVPS [CAPN1_Y494_G492R]
target-of-assay: Fyn (UniProt P06241)
phosphorylation enrichment: 1.41

**Query** What phosphorylation enrichment value was documented for this sequence, PLQSEYSSIST [ITGB4_Y1760_T1764S] ?
**Result** 1.27

**Query** Form field: reported phosphorylation enrichment of RELSWYRGRRP [HESX1_Y106]
**Result** 0.781

**Query** Given NIEPIYLNMLL [ATR_Y317_V316I] , state its recorded phosphorylation enrichment.
**Result** 8.37

**Query** Would you mind telling me what phosphorylation enrichment value was observed for CENCHYPILPL [LCK_Y25_V28L] ?
**Result** 0.391

**Query** Which phosphorylation enrichment is reported for this sequence? RHLQEYQDLLN [GFAP_Y349]
**Result** 0.616

**Query** Field request: phosphorylation enrichment | item: LYEDRYLLGPS [ASS1_Y87_T91P]
**Result** 2.3

**Query** What does the record list as phosphorylation enrichment for ASPALYRLDLD [TRIL_Y352] ?
**Result** 0.922

----------
target: EPHB2 (UniProt P29323); assay: phosphorylation enrichment, bacterial display (enrichment ratio); higher = better substrate or ligand; peptides without Tyr show the background
Sequence (P29323 whole entry, looked up): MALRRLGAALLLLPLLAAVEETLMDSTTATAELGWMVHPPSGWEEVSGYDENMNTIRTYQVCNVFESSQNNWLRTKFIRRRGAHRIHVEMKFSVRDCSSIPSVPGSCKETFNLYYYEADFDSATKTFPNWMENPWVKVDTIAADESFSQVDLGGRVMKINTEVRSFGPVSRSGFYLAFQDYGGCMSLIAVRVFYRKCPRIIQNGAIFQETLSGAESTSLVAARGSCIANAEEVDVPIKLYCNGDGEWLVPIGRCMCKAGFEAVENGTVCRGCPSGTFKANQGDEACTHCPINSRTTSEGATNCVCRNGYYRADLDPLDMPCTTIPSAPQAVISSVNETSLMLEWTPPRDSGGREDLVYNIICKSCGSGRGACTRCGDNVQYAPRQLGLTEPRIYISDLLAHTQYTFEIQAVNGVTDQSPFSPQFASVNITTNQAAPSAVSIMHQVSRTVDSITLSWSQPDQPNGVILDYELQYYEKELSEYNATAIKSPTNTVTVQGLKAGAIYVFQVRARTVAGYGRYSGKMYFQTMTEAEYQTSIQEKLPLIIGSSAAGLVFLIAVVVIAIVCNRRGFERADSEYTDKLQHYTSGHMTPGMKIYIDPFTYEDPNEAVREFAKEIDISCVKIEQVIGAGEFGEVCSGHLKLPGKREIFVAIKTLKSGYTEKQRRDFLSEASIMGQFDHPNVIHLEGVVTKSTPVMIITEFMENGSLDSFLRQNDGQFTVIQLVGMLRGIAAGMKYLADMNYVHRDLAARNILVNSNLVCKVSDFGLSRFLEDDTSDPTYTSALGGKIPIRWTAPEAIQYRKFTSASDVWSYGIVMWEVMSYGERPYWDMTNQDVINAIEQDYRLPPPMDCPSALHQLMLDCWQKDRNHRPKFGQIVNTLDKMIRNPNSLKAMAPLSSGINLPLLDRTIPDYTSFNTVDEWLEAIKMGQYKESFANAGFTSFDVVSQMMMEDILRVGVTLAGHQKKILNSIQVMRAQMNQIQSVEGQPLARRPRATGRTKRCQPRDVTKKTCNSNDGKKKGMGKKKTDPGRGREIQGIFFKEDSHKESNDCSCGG
The sequences listed here are annotated with their phosphorylation enrichment.

Examples with their reported phosphorylation enrichment follow.
biopolymer-sequence: HEHKGYNANFC [TGFB2_Y341_P338H]
phosphorylation enrichment: 0.727

biopolymer-sequence: LSPPVYLTNEW [NRK_Y885_I880L]
phosphorylation enrichment: 0.851

biopolymer-sequence: DLDTDYGSGFP [RNASEH2A_Y206_YF]
phosphorylation enrichment: 0.443

biopolymer-sequence: KLFIEYPTGSG [IRF2BPL_Y423]
phosphorylation enrichment: 0.565

**Query** Can you look up the measured phosphorylation enrichment of FGTAQYCCRMG [LRRK2_Y2023_I2020T_YF] for me?
**Result** 8.12

**Query** Need phosphorylation enrichment of CTNELYMMMRD [FGFR1_Y730] , thanks.
**Result** 1.09

**Query** Please look up its phosphorylation enrichment: SKGFAYVHFDS [PABPC5_Y149_YF]
**Result** 0.466

**Query** Quick one: phosphorylation enrichment of QGLRLYRPHLA [BTK_Y617] ?
**Result** 0.697

----------
target: FGFR3 (UniProt P22607); assay: phosphorylation enrichment, bacterial display (enrichment ratio); higher = better substrate or ligand; peptides without Tyr show the background
Sequence (P22607 whole entry, looked up): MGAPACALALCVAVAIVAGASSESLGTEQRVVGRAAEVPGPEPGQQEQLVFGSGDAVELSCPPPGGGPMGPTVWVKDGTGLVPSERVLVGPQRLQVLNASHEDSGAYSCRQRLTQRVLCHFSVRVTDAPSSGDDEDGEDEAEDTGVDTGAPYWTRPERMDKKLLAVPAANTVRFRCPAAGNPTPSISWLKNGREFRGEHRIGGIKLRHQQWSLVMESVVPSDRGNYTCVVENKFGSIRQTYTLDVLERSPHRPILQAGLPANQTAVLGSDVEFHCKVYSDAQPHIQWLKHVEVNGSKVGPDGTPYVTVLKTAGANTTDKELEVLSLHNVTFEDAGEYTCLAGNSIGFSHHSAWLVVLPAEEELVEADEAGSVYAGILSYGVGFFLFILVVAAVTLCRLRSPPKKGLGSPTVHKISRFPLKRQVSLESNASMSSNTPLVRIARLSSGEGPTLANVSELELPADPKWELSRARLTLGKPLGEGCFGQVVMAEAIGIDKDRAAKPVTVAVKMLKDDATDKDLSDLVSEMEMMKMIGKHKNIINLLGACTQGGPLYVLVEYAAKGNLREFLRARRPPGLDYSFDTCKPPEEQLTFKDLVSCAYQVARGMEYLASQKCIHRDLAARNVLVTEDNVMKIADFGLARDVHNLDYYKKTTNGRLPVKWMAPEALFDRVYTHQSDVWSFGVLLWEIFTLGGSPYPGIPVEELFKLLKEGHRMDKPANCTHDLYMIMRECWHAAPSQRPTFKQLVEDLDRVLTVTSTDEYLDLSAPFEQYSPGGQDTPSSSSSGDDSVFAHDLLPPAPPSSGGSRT
Output: class label from phosphorylation enrichment. Mapping: lower band: < 0.6; central band: ≥ 0.6 and < 0.7; upper band: ≥ 0.7

biopolymer-sequence: LAAAGYDVEKN [H1-3_Y72]
assigned-category: central band

biopolymer-sequence: VVEFGYEFFAK [PPP1CB_Y254_D252Y_YF]
assigned-category: upper band

biopolymer-sequence: KIITDYFVDMK [MPP4_Y566_V562I_YF]
assigned-category: upper band

biopolymer-sequence: LDFNEYVRDLN [HPRT1_Y198_F199V_YF]
assigned-category: central band

biopolymer-sequence: IVVVPYEPPEV [TP53_Y220_S215I]
assigned-category: central band

biopolymer-sequence: KVIDMYLMGCF [GABRB2_Y308_A304V]
assigned-category: upper band

biopolymer-sequence: MGSYNYLGFAR [SPTLC2_Y178]
assigned-category: upper band

biopolymer-sequence: RIDPDYVGRVR [IGSF9_Y81]
assigned-category: lower band

biopolymer-sequence: VTDGKYAFKPK [GTF2E2_Y137_I133T]
assigned-category: lower band

biopolymer-sequence: PVDTYYDSTRG [DYNC2H1_Y2231_M2227V]
assigned-category: upper band

**Query** Into which category would you place DNEALYDTCFR [TUBB2B_Y208_I210T] ?
**Result** upper band
